Data origin: paper PMC7158045

Molecular target: ZmDRIK1-R187-P492 (Zea mays, UniProt C0P4K9)
Construct: kinase domain, R187-P492
Sequence (C0P4K9 1-514): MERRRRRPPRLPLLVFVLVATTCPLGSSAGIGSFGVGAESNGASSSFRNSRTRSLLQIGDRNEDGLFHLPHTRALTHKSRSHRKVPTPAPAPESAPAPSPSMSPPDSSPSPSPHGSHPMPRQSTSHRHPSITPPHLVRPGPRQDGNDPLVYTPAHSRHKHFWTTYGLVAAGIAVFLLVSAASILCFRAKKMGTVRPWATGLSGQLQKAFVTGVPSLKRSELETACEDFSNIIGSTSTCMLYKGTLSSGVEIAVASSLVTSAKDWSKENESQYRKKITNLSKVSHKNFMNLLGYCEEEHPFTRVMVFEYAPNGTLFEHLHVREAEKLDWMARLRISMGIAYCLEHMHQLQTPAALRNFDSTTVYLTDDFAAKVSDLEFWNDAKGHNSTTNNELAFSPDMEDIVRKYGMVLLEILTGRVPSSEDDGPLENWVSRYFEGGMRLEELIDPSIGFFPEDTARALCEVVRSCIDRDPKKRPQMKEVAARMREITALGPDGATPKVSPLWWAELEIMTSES
Test: biochemical
Settings: read-out: dTm B, DSF, Boltzmann fit, 0.1% DMSO
Would you mind telling me the reported ΔTm at 10 µM of each entry?
Answers are plain numbers, in °C.

COMPOUND: Cc1cnc(Nc2ccc(OCCN3CCCC3)cc2)nc1Nc1cccc(S(=O)(=O)NC(C)(C)C)c1 [TG101348 (SAR302503)]
TEST_RESULT: -0.567
//
COMPOUND: COc1ccc(Cl)cc1NC(=O)Nc1cc(C)nc2ccccc12 [PQ 401]
TEST_RESULT: -0.365
//
COMPOUND: N#C/C(=C\c1ccc(O)c(O)c1)C(=O)NCc1ccccc1 [AG-490 (Tyrphostin B42)]
TEST_RESULT: -0.394
//
COMPOUND: CN1CCC(CNc2ccc3ncc(-c4cccc(OC(F)(F)F)c4)n3n2)CC1 [SGI-1776 free base]
TEST_RESULT: -0.27
//
COMPOUND: O=C(O)[C@]1(Cc2cccc(Nc3nccs3)n2)CC[C@@H](Oc2cccc(Cl)c2F)CC1 [MK-5108 (VX-689)]
TEST_RESULT: -0.282

Okay, here is my list. What is ΔTm at 10 µM for each of these?
1. N#CCNC(=O)c1ccc(-c2ccnc(Nc3ccc(N4CCOCC4)cc3)n2)cc1 [CYT387]
2. CCNC(=O)Nc1ccc(-c2nc3c(c(N4CCOC[C@@H]4C)n2)CCN(C2COC2)C3)cc1 [GDC-0349]
3. Cc1cc(Nc2ncnc3ccc(-c4ccc(CNCCS(C)(=O)=O)o4)cc23)ccc1Oc1ccn2ncnc2c1 [HER2-Inhibitor-1]
4. CC1(COc2ccc3c(c2)ncn3-c2ccc3cccc(N4CCC(N)CC4)c3n2)COC1 [Crenolanib (CP-868596)]
5. N#CC(=C(/N)Sc1ccccc1N)/C(C#N)=C(\N)Sc1ccccc1N [U0126-EtOH]

Response:
1: -0.227; 2: -0.218; 3: 0.197; 4: -0.209; 5: -0.611
